Below: a set of entries, each annotated with reported pIC50.
- target.or.system: KRAS G13D (Homo sapiens (Human), UniProt P01116+P62937, G13D)
- Sequence (P01116-2 other isoform, or with tags, fused parts or gaps G13D): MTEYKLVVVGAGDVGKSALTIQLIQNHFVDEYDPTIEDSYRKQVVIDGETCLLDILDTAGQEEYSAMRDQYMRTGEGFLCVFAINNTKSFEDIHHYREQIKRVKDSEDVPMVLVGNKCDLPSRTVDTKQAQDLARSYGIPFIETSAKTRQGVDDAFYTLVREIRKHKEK
- Sequence (P62937 whole entry): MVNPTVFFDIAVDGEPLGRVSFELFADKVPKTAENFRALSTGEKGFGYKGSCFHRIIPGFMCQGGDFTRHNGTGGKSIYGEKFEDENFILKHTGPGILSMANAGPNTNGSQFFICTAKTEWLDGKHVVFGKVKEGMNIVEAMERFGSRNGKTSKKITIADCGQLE
- assay.procedure: Ras-Raf (BRAF RBD) disruption / FRET / MOA assay, KRAS G13D
- Assay type: biochemical
- conditions.used: read-out: IC50* KRAS G13D FRET data
pIC50: −log10 of the molar value.

CCn1c(-c2cnccc2COC)c2c3cc(ccc31)-c1cncc(c1)C[C@H](NC(=O)[C@H](C(C)C)N(C)C(=O)[C@H]1CCN(C(=O)C#CCN(C)C)C1)C(=O)N1CCC[C@H](N1)C(=O)OCC(C)(C)C2
< 5.00
C=CC(=O)N1CC[C@H](C(=O)N(C)[C@H](C(=O)N[C@H]2Cc3cc(O)cc(c3)-c3ccc4c(c3)c(c(-c3cncnc3)n4CC)CC(C)(C)COC(=O)[C@@H]3CCCN(N3)C2=O)C(C)C)O1
5.00 to 6.00
C=CC(=O)NCCN1CCN(C(=O)N(C)[C@H](C(=O)N[C@H]2Cc3nc(cs3)-c3ccc4c(c3)c(c(-c3cccnc3[C@H](C)OC)n4CC)CC(C)(C)COC(=O)[C@@H]3CCCN(N3)C2=O)C(C)C)CC1 (atropisomer, axis not shown)
6.00 to 7.00

Find the recorded pIC50 belonging to "C=CC(=O)N1CC[C@H](C(=O)N(C)[C@H](C(=O)N[C@H]2Cc3cc(ccn3)-c3ccc4c(c3)c(c(-c3cccnc3COC)n4CC)CC(C)(C)COC(=O)[C@@H]3CCCN(N3)C2=O)C(C)C)C1" and report it. < 5.00

----------
- target.or.system: K-Ras G12C (Homo sapiens (Human), UniProt P01116+P62937, G12C)
- Sequence (P01116-2 other isoform, or with tags, fused parts or gaps G12C, one chain of several): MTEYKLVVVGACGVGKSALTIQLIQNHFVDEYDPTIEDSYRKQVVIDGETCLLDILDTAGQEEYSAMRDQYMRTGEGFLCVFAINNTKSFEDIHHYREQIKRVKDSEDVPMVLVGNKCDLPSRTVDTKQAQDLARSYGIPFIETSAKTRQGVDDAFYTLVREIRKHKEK
- assay.procedure: Ras-Raf (BRAF RBD) disruption / FRET / MOA assay, KRAS G12C
- Format: biochemical
- conditions.used: KRAS G12C; Ras-Raf disruption/FRET/MOA assay; read-out: IC50* KRAS G12C FRET data
pIC50: −log10 of the molar value.
assay.metric: pIC50

C=CC(=O)Nc1cnc(C(=O)N(C)[C@H](C(=O)N[C@H]2Cc3cc(O)cc(c3)-c3ccc4c(c3)c(c(-c3cccnc3[C@H](C)OC)n4CC)CC(C)(C)COC(=O)[C@@H]3CCCN(N3)C2=O)C(C)C)n1C (atropisomer, axis not shown)
> 8.00

Next compound, pIC50 to be filled in.
Find the recorded pIC50 belonging to "C=CC(=O)N1CC[C@H](C(=O)N(C)[C@H](C(=O)N[C@@H]2C(=O)N3CCC[C@H](N3)C(=O)OCC(C)(C)Cc3c(-c4cncnc4)n(CC)c4ccc(cc34)-c3cccc(c3)[C@H]2OC)C(C)C)C1" and report it. < 5.00

----------
- target.or.system: KRAS G12V (Homo sapiens (Human), UniProt P01116+P62937, G12V)
- Sequence (P01116-2 other isoform, or with tags, fused parts or gaps G12V, one chain of several): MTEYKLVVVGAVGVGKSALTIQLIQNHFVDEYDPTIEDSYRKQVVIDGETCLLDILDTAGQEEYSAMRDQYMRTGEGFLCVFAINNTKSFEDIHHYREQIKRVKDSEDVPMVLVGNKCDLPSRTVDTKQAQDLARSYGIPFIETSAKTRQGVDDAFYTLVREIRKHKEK
- assay.procedure: Ras-Raf (BRAF RBD) disruption / FRET / MOA assay, KRAS G12V
- Format: biochemical
- conditions.used: read-out: IC50* KRAS G12V FRET data
pIC50: −log10 of the molar value.
assay.metric: pIC50

Sample answers from the record:
C=CC(=O)N1CC[C@H](C(=O)N(C)[C@H](C(=O)N[C@H]2Cc3cccc(c3)-c3ccc4c(c3)c(c(-c3cnccc3COC)n4CC)CC(C)(C)COC(=O)[C@@H]3CCCN(N3)C2=O)C(C)C)C1 (atropisomer, axis not shown) [Example A119]
< 5.00
C=CC(=O)N1CCOC2(CCN(C(=O)N(C)[C@H](C(=O)N[C@H]3Cc4cccc(c4)-c4ccc5c(c4)c(c(-c4cccnc4[C@H](C)OC)n5CC(F)(F)F)CC(C)(C)COC(=O)[C@@H]4CCCN(N4)C3=O)C(C)C)CC2)C1 (atropisomer, axis not shown) [Example A608]
6.00 to 7.00
CCn1c(-c2cccnc2)c2c3cc(ccc31)-c1cccc(c1)C[C@H](NC(=O)[C@H](C(C)C)N(C)C(=O)[C@H]1CCN(C(=O)C#CCN(C)C)C1)C(=O)N1CCC[C@H](N1)C(=O)OCC(C)(C)C2 [Example A152]
5.00 to 6.00

Find the recorded pIC50 belonging to CCn1c(-c2cccnc2[C@H](C)OC)c2c3cc(ccc31)-c1cccc(c1)C[C@H](NC(=O)[C@@H](CO[C@@H]1CCN(C(=O)C#CC(C)(C)N(C)C)C1)C(C)C)C(=O)N1CCC[C@H](N1)C(=O)OCC(C)(C)C2 (atropisomer, axis not shown) [Example A584] and report it. 5.00 to 6.00

----------
- target.or.system: KRAS G12D (Homo sapiens (Human), UniProt P01116+P62937, G12D)
- Sequence (P01116-2 other isoform, or with tags, fused parts or gaps G12D, one chain of several): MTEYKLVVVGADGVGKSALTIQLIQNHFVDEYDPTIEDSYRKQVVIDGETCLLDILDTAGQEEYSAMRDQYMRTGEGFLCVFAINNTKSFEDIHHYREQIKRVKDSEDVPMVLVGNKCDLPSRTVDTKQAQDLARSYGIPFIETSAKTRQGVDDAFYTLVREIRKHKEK
- assay.procedure: Ras-Raf (BRAF RBD) disruption / FRET / MOA assay, KRAS G12D
- Type: biochemical
- conditions.used: Ras-Raf disruption/FRET/MOA assay; class symbols; read-out: KRAS G12D FRET data IC50
pIC50: −log10 of the molar value.
Below: a set of entries, each annotated with reported pIC50.

Sample answers from the record:
C=CC(=O)N1CC[C@H](C(=O)N(C)[C@H](C(=O)N[C@H]2Cc3cc(O)cc(c3)-c3ccc4c(c3)c(c(-c3cccnc3COC)n4CC#N)CC(C)(C)COC(=O)[C@@H]3CCCN(N3)C2=O)C(C)C)C1
5.00 to 6.00
CCn1c(-c2cnccc2COC)c2c3cc(ccc31)-c1cccc(c1)C[C@H](NC(=O)[C@H](C(C)C)N(C)C(=O)[C@H]1CCN(C(=O)C#CCN(C)C)C1)C(=O)N1CCC[C@H](N1)C(=O)OCC(C)(C)C2 (atropisomer, axis not shown)
5.00 to 6.00
C=CC(=O)N1CC[C@H](C(=O)N(C)[C@H](C(=O)N[C@H]2Cc3cc(O)cc(c3)-c3ccc4nc(-c5cccnc5[C@H](C)OC)n(c4c3)CC(C)(C)COC(=O)[C@@H]3CCCN(N3)C2=O)C(C)C)C1
< 5.00

Find the recorded pIC50 belonging to C=CC(=O)Nc1csc(C(=O)N(C)[C@H](C(=O)N[C@H]2Cc3cc(O)cc(c3)-c3ccc4c(c3)c(c(-c3cccnc3[C@H](C)OC)n4CC)CC(C)(C)COC(=O)[C@@H]3CCCN(N3)C2=O)C(C)C)n1 (atropisomer, axis not shown) and report it. < 5.00

----------
- target.or.system: KRAS WT (Homo sapiens (Human), UniProt P01116+P62937)
- Sequence (P01116-2 other isoform, or with tags, fused parts or gaps): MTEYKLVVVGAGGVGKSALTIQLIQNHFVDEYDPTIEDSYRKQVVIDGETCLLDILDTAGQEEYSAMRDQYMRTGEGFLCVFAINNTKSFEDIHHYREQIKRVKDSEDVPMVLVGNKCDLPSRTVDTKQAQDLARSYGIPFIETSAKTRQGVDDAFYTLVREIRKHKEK
- Sequence (P62937 whole entry): as the sequence (P62937 whole entry) above
- assay.procedure: Ras-Raf (BRAF RBD) disruption / FRET / MOA assay, KRAS WT
- Type: biochemical
- conditions.used: read-out: IC50* KRAS WT FRET data
Below: a set of entries, each annotated with reported IC50.

Sample answers from the record:
CCn1c(-c2cccnc2[C@H](C)OC)c2c3cc(ccc31)-c1cc(F)cc(c1)C[C@H](NC(=O)[C@@H](COC1CN(C(=O)C#CC(C)(C)N(C)C)C1)C(C)C)C(=O)N1CCC[C@H](N1)C(=O)OCC(C)(C)C2 (atropisomer, axis not shown)
> 10000 nM
CCn1c(-c2cccnc2[C@H](C)OC)c2c3cc(ccc31)-c1csc(n1)C[C@H](NC(=O)[C@H](C(C)C)N(C)C(=O)N1CCC3(CC1)CN(C(=O)/C=C/CF)C3)C(=O)N1CCC[C@H](N1)C(=O)OCC(C)(C)C2 (atropisomer, axis not shown)
100 to 1000 nM
C=CC(=O)N1CC[C@H](C(=O)N(C)[C@H](C(=O)N[C@H]2Cc3cc(O)cc(c3)-c3ccc4c(c3)c(c(-c3cnccc3[C@@H](OC)C3CC3)n4CC)CC(C)(C)COC(=O)[C@@H]3CCCN(N3)C2=O)C(C)C)C1
> 10000 nM
CCn1c(-c2cccnc2[C@H](C)OC)c2c3cc(ccc31)-c1cc(O)cc(c1)C[C@H](NC(=O)[C@H](C(C)C)N(C)C(=O)[C@H]1CCN(C(=O)C#CCN3[C@H](C)COC[C@@H]3C)C1)C(=O)N1CCC[C@H](N1)C(=O)OCC(C)(C)C2 (atropisomer, axis not shown)
100 to 1000 nM

Find the recorded IC50 belonging to "C=CC(=O)N(C)[C@H](C(=O)N[C@H]1Cc2cc(O)cc(c2)-c2ccc3c(c2)c(c(-c2cccnc2COC)n3CC)CC(C)(C)COC(=O)[C@@H]2CCCN(N2)C1=O)C(C)C" and report it. 100 to 1000 nM

Now consider "C=CC(=O)N1CC[C@H](C(=O)N(C)[C@H](C(=O)N[C@H]2Cc3cc(O)cc(c3)-c3ccc4c(c3)c(c(-c3ccc(COC)cc3CN(C)C)n4CC)CC(C)(C)COC(=O)[C@@H]3CCCN(N3)C2=O)C(C)C)C1" and answer again. 1000 to 10000 nM

Now consider C=CC(=O)Nc1cnc(C(=O)N(C)[C@H](C(=O)N[C@H]2Cc3cccc(c3)-c3ccc4c(c3)c(c(-c3cccnc3[C@H](C)OC)n4CC)CC(C)(C)COC(=O)[C@@H]3CCCN(N3)C2=O)C(C)C)n1C (atropisomer, axis not shown) [Example A524] and answer again. > 10000 nM

Now consider C=CC(=O)Nc1cnc(C(=O)N(C)[C@H](C(=O)N[C@H]2Cc3cccc(c3)-c3ccc4c(c3)c(c(-c3cccnc3[C@H](C)OC)n4CC)CC(C)(C)COC(=O)[C@@H]3CCCN(N3)C2=O)C(C)C)n1C (atropisomer, axis not shown) [Example A525] and answer again. 1000 to 10000 nM
